These entries and their values trace back to the supplement of paper PMC10065799.

target desc: MERTK (UniProt Q12866)
Sequence (Q12866 whole entry, looked up): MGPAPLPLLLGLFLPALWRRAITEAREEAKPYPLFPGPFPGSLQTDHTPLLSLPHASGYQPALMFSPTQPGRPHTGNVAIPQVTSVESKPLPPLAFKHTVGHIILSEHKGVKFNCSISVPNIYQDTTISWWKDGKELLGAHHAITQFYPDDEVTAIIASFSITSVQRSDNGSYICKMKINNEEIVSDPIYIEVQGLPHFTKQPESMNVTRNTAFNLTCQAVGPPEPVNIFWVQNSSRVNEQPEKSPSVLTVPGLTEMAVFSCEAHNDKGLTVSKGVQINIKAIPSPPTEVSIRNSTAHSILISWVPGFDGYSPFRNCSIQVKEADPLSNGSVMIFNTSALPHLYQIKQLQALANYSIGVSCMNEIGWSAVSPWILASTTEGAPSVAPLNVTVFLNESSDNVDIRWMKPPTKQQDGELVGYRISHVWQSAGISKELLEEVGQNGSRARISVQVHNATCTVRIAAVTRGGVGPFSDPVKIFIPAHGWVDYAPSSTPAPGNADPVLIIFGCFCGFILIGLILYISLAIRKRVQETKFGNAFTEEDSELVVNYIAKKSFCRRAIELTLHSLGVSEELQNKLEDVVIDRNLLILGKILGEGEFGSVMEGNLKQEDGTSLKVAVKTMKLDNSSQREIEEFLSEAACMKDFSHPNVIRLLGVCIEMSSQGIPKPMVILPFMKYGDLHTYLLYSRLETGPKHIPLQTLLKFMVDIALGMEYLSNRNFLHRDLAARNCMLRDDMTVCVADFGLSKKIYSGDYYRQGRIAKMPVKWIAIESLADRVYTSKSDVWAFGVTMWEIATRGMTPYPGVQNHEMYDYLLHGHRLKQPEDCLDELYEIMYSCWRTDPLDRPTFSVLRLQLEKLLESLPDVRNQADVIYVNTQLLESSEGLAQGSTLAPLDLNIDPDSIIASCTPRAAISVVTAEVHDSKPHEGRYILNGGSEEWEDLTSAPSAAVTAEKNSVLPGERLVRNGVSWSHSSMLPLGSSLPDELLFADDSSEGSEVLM
run description: phosphorylation enrichment, bacterial display (enrichment ratio); higher = better substrate or ligand; peptides without Tyr show the background;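 note: 11-residue human phosphosite peptides and single-mutation variants displayed on the E. coli surface, counted by deep sequencing, each peptide's frequency after selection divided by its frequency in the unselected input library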;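 note: frequency after pTyr selection over input frequency; kinase dosed for 20-30% of maximal phosphorylation in three min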
// values below are reported phosphorylation enrichment
Please respond with just the number, no unit label.

As a guide, the following entries are already answered.
| seq string | measured endpoint | experimental value |
| --- | --- | --- |
| WHYTFYNELRV [ACTC1_Y93_H90Y] | phosphorylation enrichment | 0.869 |
| MKKKTYAMGGG [GAN_Y424_I423T] | phosphorylation enrichment | 0.578 |

Ask: Hello, I am looking for reported phosphorylation enrichment with MERTK (UniProt Q12866) for EFENSCIFDIN [GAB1_Y83_Y83C] . Could you help?
Result: 0.895

Ask: Continue with SIVEDYRPPFY [ACVRL1_Y421_G416S]
Result: 0.496

Ask: Continue with KLNNEYLELNY [MME_Y497]
Result: 0.449

Ask: Continue with PGPQSYPTVTG [PAX5_Y299_I301T]
Result: 0.707

Ask: Continue with EIKLAYRRRPP [GRIN2B_Y1109_E1106K]
Result: 0.652

Ask: Continue with LAAAGYDVEKN [H1-3_Y72]
Result: 0.54

Ask: Continue with EVLKNYSQQKD [GOLGA4_Y1551_N1552S]
Result: 0.458

Ask: Continue with QAKRKYQEASK [FES_Y156]
Result: 0.418

Ask: Continue with TQTPPYVKKHR [LARP1B_Y457_P462R]
Result: 0.541

Ask: Continue with RLLCEYQELMN [KRT75_Y434_R432C]
Result: 0.369

* * *

target desc: EPHB2 (UniProt P29323)
Sequence (P29323 whole entry, looked up): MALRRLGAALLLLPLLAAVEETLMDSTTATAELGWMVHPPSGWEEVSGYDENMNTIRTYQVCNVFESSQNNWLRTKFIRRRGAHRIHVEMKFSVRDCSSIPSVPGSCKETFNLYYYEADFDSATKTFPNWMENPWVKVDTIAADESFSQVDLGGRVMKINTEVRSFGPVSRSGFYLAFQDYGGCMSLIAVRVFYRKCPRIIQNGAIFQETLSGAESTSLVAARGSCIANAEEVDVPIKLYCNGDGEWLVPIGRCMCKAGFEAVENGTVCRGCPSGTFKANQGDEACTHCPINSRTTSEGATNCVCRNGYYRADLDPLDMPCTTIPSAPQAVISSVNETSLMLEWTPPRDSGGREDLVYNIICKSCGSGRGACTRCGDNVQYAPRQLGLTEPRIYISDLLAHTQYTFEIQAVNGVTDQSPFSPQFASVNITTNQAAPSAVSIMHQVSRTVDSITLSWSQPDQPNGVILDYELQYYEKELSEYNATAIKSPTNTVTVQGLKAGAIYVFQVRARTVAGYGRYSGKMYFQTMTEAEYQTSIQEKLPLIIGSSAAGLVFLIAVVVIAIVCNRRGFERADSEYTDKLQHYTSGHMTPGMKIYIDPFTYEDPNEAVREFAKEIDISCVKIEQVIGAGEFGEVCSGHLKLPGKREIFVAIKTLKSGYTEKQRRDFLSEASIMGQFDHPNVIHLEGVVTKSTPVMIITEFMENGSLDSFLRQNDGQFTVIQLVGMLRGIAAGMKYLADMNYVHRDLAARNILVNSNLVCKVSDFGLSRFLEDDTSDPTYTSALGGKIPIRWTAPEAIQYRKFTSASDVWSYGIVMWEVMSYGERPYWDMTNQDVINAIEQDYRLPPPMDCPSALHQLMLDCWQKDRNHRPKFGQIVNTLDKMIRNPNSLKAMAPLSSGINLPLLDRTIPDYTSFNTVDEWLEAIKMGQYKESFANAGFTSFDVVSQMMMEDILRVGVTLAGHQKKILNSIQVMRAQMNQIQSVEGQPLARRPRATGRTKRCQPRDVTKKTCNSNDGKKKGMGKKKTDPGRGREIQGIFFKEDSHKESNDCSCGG
run description: phosphorylation enrichment, bacterial display (enrichment ratio); higher = better substrate or ligand; peptides without Tyr show the background
// values below are reported phosphorylation enrichment
Please respond with just the number, no unit label.

As a guide, the following entries are already answered.
| seq string | experimental value |
| --- | --- |
| AAQNCYKVTNG [TPI1_Y105] | 0.421 |
| IKIMGSSIRTI [IDS_Y490_Y490S] | 0.393 |
| QSVEPYTKQQL [STAT3_Y640] | 0.695 |
| ILDEAYVMASV [EGFR_Y764] | 0.559 |
| SQSKGYRPKLF [SIPA1L3_Y1376_G1371S_YF] | 0.32 |

Turning now to a further record.
Ask: Entry GIATGYLVLKE [DNMT3B_Y588] has what phosphorylation enrichment?
Result: 0.558

* * *

// values below are reported phosphorylation enrichment
target desc: Fes (UniProt P07332)
Sequence (P07332 whole entry, looked up): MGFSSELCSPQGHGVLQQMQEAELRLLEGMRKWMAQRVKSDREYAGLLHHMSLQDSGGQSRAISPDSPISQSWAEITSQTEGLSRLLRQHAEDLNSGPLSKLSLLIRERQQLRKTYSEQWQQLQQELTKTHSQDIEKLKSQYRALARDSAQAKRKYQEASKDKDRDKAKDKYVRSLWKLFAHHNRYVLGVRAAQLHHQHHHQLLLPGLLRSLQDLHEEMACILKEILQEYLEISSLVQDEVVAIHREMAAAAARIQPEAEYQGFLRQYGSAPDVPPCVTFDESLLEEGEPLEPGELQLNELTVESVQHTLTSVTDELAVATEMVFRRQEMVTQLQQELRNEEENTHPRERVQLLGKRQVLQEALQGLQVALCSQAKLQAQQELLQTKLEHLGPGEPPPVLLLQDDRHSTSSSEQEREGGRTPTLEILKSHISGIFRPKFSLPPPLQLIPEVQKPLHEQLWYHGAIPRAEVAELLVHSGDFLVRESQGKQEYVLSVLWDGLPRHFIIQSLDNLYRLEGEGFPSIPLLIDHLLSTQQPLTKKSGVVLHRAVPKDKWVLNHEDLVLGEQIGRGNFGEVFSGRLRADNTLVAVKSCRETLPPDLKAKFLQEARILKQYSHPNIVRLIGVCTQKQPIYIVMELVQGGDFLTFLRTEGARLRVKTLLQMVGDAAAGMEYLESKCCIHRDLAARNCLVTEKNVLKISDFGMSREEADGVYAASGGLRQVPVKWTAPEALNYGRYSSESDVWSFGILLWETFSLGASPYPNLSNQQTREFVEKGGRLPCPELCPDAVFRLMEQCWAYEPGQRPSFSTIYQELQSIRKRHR
run description: phosphorylation enrichment, bacterial display (enrichment ratio); higher = better substrate or ligand; peptides without Tyr show the background

As a guide, the following entries are already answered.
| seq string | phosphorylation enrichment |
| --- | --- |
| EPDSLYGCGGG [ATM_Y2019] | 1.26 |
| SVTCTYSAALN [TP53_Y126_P128A] | 1.72 |

Ask: Hello, I am looking for reported phosphorylation enrichment with Fes (UniProt P07332) for VGTKWYMAPEV [ACVRL1_Y375_R374W] . Could you help?
Result: 0.764

Ask: Continue with TWSSSYRSDRL [CRYBB1_Y131]
Result: 1.07

Ask: Continue with QMVGMYASFYM [AVPR2_Y124_S127F]
Result: 1.65
